Where do the numbers come from? From ChEMBL document CHEMBL3885861.

Organism: Rattus norvegicus
assay-overview: Open TG-GATES - Regimen: Daily Repeat
Assay type: toxicity, organism-based, Sprague-Dawley
Design: regimen Daily Repeat, gender Male, age 6 weeks
run-parameters: in vivo, po, 0 mg/kg, […], tissue Blood, route gavage, dose level Control, time 28 day
attribute-measured: Neu
Field: value (include unit after the number)

Use the examples below as a reference point.
molecule | Neu
CC(N)=O [ACETAMIDE] | 14.2%
CC(=O)N1CCN(c2ccc(OCC3COC(Cn4ccnc4)(c4ccc(Cl)cc4Cl)O3)cc2)CC1 (configuration not stated) | 11.8%

Neu for O=C(O)COc1nn(Cc2ccccc2)c2ccccc12 is 11.4%

Recorded result, CCN(CC)N=O , Neu: 14.8%

Entry CC(CCc1ccccc1)NCC(O)c1ccc(O)c(C(N)=O)c1 (configuration not stated) — recorded Neu = 18.4%

Notebook: CC(=O)Nc1ccc2c(c1)Cc1ccccc1-2 , Neu read as 13.2%

The recorded Neu for CC[C@@H](CO)NCCN[C@@H](CC)CO is 11.4%

---

Species on record: Rattus norvegicus
assay-overview: Open TG-GATES - Regimen: Daily Repeat
Assay type: toxicity, organism-based, Sprague-Dawley
Set-up: regimen Daily Repeat, gender Male, age 6 weeks
run-parameters: in vivo, po, 0 mg/kg, […], tissue Blood, route gavage, dose level Control, time 28 day
attribute-measured: PT (s)
// return numeric value only (unit: s, not printed)

Illustrative cases are given below, each with its answer.
molecule | PT / s
CCN(CC)N=O [N-NITROSODIETHYLAMINE] | 11.6
CC(=O)Nc1ccc2c(c1)Cc1ccccc1-2 [2-ACETYLAMINOFLUORENE] | 11.6
CC(=O)N1CCN(c2ccc(OCC3COC(Cn4ccnc4)(c4ccc(Cl)cc4Cl)O3)cc2)CC1 (configuration not stated) [KETOCONAZOLE] | 17
CC(C)Cc1ccc(C(C)C(=O)O)cc1 (configuration not stated) [IBUPROFEN] | 16.9
CC[C@@H](CO)NCCN[C@@H](CC)CO [ETHAMBUTOL] | 15.6
O=C(O)COc1nn(Cc2ccccc2)c2ccccc12 [BENDAZAC] | 11.7

Consider the additional molecule presented here.
The value of PT measured for the molecule CC(CCc1ccccc1)NCC(O)c1ccc(O)c(C(N)=O)c1 (configuration not stated) [LABETALOL] turned out to be 12.9

---

Organism: Rattus norvegicus
assay-overview: Open TG-GATES - Regimen: Daily Repeat
Type: toxicity, organism-based, Sprague-Dawley
Design: regimen Daily Repeat, gender Male, age 6 weeks
run-parameters: in vivo, po, 0 mg/kg, […], tissue Plasma, route gavage, dose level Control, time 28 day
Decide by ALP: equal to or exceeding 1000 IU/L means condition met, less means condition not met.

See these solved cases before continuing.
molecule | group-label
CC(=O)N1CCN(c2ccc(OCC3COC(Cn4ccnc4)(c4ccc(Cl)cc4Cl)O3)cc2)CC1 (stereo not drawn) | condition met
CC(CCc1ccccc1)NCC(O)c1ccc(O)c(C(N)=O)c1 (stereo not drawn) | condition met
CC(C)Cc1ccc(C(C)C(=O)O)cc1 (stereo not drawn) | condition met
CC(=O)Nc1ccc2c(c1)Cc1ccccc1-2 | condition not met

Given the entry O=C(O)COc1nn(Cc2ccccc2)c2ccccc12 , answer whether its ALP meets or surpasses 1000 IU/L.
condition not met

Decide: is the reported value of ALP for CCN(CC)N=O equal to or greater than 1000 IU/L?
condition not met

---

Organism: Rattus norvegicus
assay-overview: Open TG-GATES - Regimen: Daily Repeat
Type: toxicity, organism-based, Sprague-Dawley
Set-up: regimen Daily Repeat, gender Male, age 6 weeks
run-parameters: in vivo, po, 0 mg/kg, […], tissue Plasma, route gavage, dose level Control, time 28 day
GLC less than 200 mg/dL is label 1; GLC greater than or equal to 200 mg/dL is label 0.

molecule | group-label
CC[C@@H](CO)NCCN[C@@H](CC)CO [ETHAMBUTOL] | label 0
CC(=O)N1CCN(c2ccc(OCC3COC(Cn4ccnc4)(c4ccc(Cl)cc4Cl)O3)cc2)CC1 (stereo not drawn) [KETOCONAZOLE] | label 1
CCN(CC)N=O [N-NITROSODIETHYLAMINE] | label 0
CC(=O)Nc1ccc2c(c1)Cc1ccccc1-2 [2-ACETYLAMINOFLUORENE] | label 0

Now, please, on to the next molecule.
# check: GLC < 200 mg/dL for O=C(O)COc1nn(Cc2ccccc2)c2ccccc12 [BENDAZAC]
label 1

---

Species on record: Rattus norvegicus
assay-overview: Open TG-GATES - Regimen: Single
Format: toxicity, organism-based, Sprague-Dawley
Set-up: regimen Single, gender Male, age 6 weeks
run-parameters: in vivo, po, 0 mg/kg, 3 h, tissue Plasma, route gavage, dose level Control
attribute-measured: AST (IU/L)
Write the number in IU/L without appending the unit.

Consider the worked cases shown below.
compound | output-unit | AST
CC(C)Cc1ccc(C(C)C(=O)O)cc1 (configuration not stated) | IU/L | 81.8
CC(=O)N1CCN(c2ccc(OCC3COC(Cn4ccnc4)(c4ccc(Cl)cc4Cl)O3)cc2)CC1 (configuration not stated) | IU/L | 76.2
O=C(O)COc1nn(Cc2ccccc2)c2ccccc12 | IU/L | 65.8
CC(CCc1ccccc1)NCC(O)c1ccc(O)c(C(N)=O)c1 (configuration not stated) | IU/L | 77.4
CC[C@@H](CO)NCCN[C@@H](CC)CO | IU/L | 73.6
CCN(CC)N=O | IU/L | 68.4

Just so you know, measured AST for CC(=O)Nc1ccc2c(c1)Cc1ccccc1-2 came out at 77.4

---

Organism: Rattus norvegicus
assay-overview: Open TG-GATES - Regimen: Single
Type: toxicity, organism-based, Sprague-Dawley
Parameters: regimen Single, gender Male, age 6 weeks
run-parameters: in vivo, po, 0 mg/kg, 24 h, tissue Liver, route gavage, dose level Control
attribute-measured: LIVER

Example cases with answers are listed next.
compound | LIVER
CC(=O)N1CCN(c2ccc(OCC3COC(Cn4ccnc4)(c4ccc(Cl)cc4Cl)O3)cc2)CC1 (configuration not stated) [KETOCONAZOLE] | 10.4 g
CC(=O)Nc1ccc2c(c1)Cc1ccccc1-2 [2-ACETYLAMINOFLUORENE] | 11.4 g
CC[C@@H](CO)NCCN[C@@H](CC)CO [ETHAMBUTOL] | 10.8 g
CCN(CC)N=O [N-NITROSODIETHYLAMINE] | 10.2 g
O=C(O)COc1nn(Cc2ccccc2)c2ccccc12 [BENDAZAC] | 10.7 g

Field LIVER (entry CC(C)Cc1ccc(C(C)C(=O)O)cc1 (configuration not stated) [IBUPROFEN] ) reads 10.1 g

Lookup result for CC(CCc1ccccc1)NCC(O)c1ccc(O)c(C(N)=O)c1 (configuration not stated) [LABETALOL] ; measured LIVER: 10.2 g

---

Species on record: Rattus norvegicus
assay-overview: Open TG-GATES - Regimen: Daily Repeat
Assay type: toxicity, organism-based, Sprague-Dawley
Design: regimen Daily Repeat, gender Male, age 6 weeks
run-parameters: in vivo, po, 0 mg/kg, […], tissue Blood, route gavage, dose level Control, time 7 day
Threshold-based label: APTT under 20 s gives criterion met, APTT not under 20 s gives criterion not met.

See these solved cases before continuing.
compound | group-label
CCN(CC)N=O | criterion not met
CC(C)Cc1ccc(C(C)C(=O)O)cc1 (configuration not stated) | criterion not met
CC(=O)N1CCN(c2ccc(OCC3COC(Cn4ccnc4)(c4ccc(Cl)cc4Cl)O3)cc2)CC1 (configuration not stated) | criterion not met
CC(CCc1ccccc1)NCC(O)c1ccc(O)c(C(N)=O)c1 (configuration not stated) | criterion met
O=C(O)COc1nn(Cc2ccccc2)c2ccccc12 | criterion met

--- query ---
Field: below-cutoff. Rule: recorded APTT strictly less than 20 s. Subject: CC[C@@H](CO)NCCN[C@@H](CC)CO
criterion not met

---

Species: Rattus norvegicus
assay-overview: Open TG-GATES - Regimen: Daily Repeat
Assay type: toxicity, organism-based, Sprague-Dawley
Parameters: regimen Daily Repeat, gender Male, age 6 weeks
run-parameters: in vivo, po, 0 mg/kg, […], tissue Blood, route gavage, dose level Control, time 28 day
Mono by entry:
Report only the number, with the unit % understood.

# example entries with known answers
compound | Mono, %
CC[C@@H](CO)NCCN[C@@H](CC)CO | 2.6
CC(N)=O [ACETAMIDE] | 2.2

Here is the next item to consider.
Mono recorded for this compound, O=C(O)COc1nn(Cc2ccccc2)c2ccccc12 , is 4.2

---

// reported AST for each item listed
Species: Rattus norvegicus
assay-overview: Open TG-GATES - Regimen: Daily Repeat
Type: toxicity, organism-based, Sprague-Dawley
Parameters: regimen Daily Repeat, gender Male, age 6 weeks
run-parameters: in vivo, po, 0 mg/kg, […], tissue Plasma, route gavage, dose level Control, time 7 day

These recorded examples may help you get a feel for the data.
molecule | reported-result
CC(=O)Nc1ccc2c(c1)Cc1ccccc1-2 | 65 IU/L
O=C(O)COc1nn(Cc2ccccc2)c2ccccc12 | 60.8 IU/L

Consider the additional molecule presented here.
CC(N)=O [ACETAMIDE] has a reported AST of 64.2 IU/L
